TARGET UNDER TEST: T1, human B7-H7 expressed on the cell surface (human, UniProt Q9UM44 23-414)
T1 sequence: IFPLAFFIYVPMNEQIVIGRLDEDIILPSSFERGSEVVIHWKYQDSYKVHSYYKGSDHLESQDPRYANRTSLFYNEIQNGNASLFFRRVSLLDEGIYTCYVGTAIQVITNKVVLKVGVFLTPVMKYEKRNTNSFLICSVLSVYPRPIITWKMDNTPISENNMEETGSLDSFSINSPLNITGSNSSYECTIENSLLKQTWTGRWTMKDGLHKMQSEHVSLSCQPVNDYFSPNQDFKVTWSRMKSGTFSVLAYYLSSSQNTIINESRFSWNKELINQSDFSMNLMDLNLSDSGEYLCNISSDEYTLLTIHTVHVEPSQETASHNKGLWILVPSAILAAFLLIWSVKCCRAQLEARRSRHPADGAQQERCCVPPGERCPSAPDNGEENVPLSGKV
ASSAY TEXT: cell-based or functional assay
MEASURE NAME: Induction of NK-92 cytotoxicity Relative efficacy (%)

binder="anti-B7-H7 antibody 28F5 (antibody, V domains shown, Mouse hybridoma antibody) VH: QVQLKESGPGLVAPSQSLSITCTVSGFSLTGYGVNWVRQPPGKGLEWLGVIWGDGSTDYNSVLKSRLSISKDNSKSQVFLKMNSLQTDDTARYYCAREATEYLYWYFDVWGAGTTVTVSS VL: DIVLTQSPASLAVSLGQRATISCRASESVEYYGSSLMQWYQQKPGQPPKLLIFAASNVESGVPPRFSGSGSGTDFNLNIHPVDEDDIAMYFCQQGRRVPWTFGGGTKLEIK" value_observed=150
binder="anti-B7-H7 antibody 1D3 (antibody, V domains shown, Mouse hybridoma antibody) VH: EVQLQQSGPELEKPGASVKISCKASGYSFTGYNMNWVKESNGRSLEWIGNIDPYSGGSTYNQKFKGKATMTVDKSSSTAYMQLKSLTSEDSAVYYCARSVYDAPWLAHWGQGTLVTVSA VL: DIQMTQSPASLSASVGETVTITCRASENIYIYLAWYQQKQGKSPQLLVYNAKTLAEGVPSRFSGSGSGTQFSLKINRLQPEDFGNYYCQHHYGTPPTFGGGTKLEIK" value_observed=136
binder="anti-B7-H7 antibody 5F7 (antibody, V domains shown, Mouse hybridoma antibody) VH: QEQLQQPGTELVKPGASVKISCKASGYTFSSYSMHWVKLTPGQGLEWMGTIYPGNENTSYNQKFKGKATLTADKSSSTAYMQLSSLTSEDSAVYYCARGGYYFDYWGQGTTLTVSS VL: DIVMTQSHKFLSTSVGDRVSITCKASQDVSTAVAWYQQKPGQSPKLLIYWASTRHTGVSDRFTGSGSGTDFTLTISSVQAEDLALYYCQQHFDIPYWFGGGTKLEIK" value_observed=151
